Ref: ChEMBL document CHEMBL3045243

Assay: Antioxidant activity assessed as inhibition of CuSO4-induced human LDL oxidation at 25 uM at 6 hr by thibarbuteric acid assay
Format: functional
quantity-kind: inhibition (%)

>>> numeric_readout("O=C(O)[C@H](Cc1ccccc1)NCCC(=O)N1c2ccccc2C=Cc2ccccc21")
18.7
>>> numeric_readout("C[C@@H](O)[C@H](NCCC(=O)N1c2ccccc2C=Cc2ccccc21)C(=O)O")
61.6
>>> numeric_readout("O=C(O)[C@H](CS)NCCC(=O)N1c2ccccc2C=Cc2ccccc21")
75.8

###

Below, each entry is listed with its recorded inhibition.
Test: Antioxidant activity assessed as inhibition of CuSO4-induced human LDL oxidation at 10 uM at 2 hr by thibarbuteric acid assay
Type: functional
quantity-kind: inhibition (%)

>>> numeric_readout("O=C(O)[C@H](Cc1ccc(O)cc1)NCCC(=O)N1c2ccccc2C=Cc2ccccc21")
70.5
>>> numeric_readout("O=C(O)[C@H](Cc1c[nH]cn1)NCCC(=O)N1c2ccccc2C=Cc2ccccc21")
56.3
>>> numeric_readout("CSCC[C@H](NCCC(=O)N1c2ccccc2C=Cc2ccccc21)C(=O)O")
54.6
>>> numeric_readout("O=C(O)[C@@H]1C(O)CCN1CCC(=O)N1c2ccccc2C=Cc2ccccc21 (stereo not given in full)")
69.7
>>> numeric_readout("O=C(O)[C@H](Cc1c[nH]c2ccccc12)NCCC(=O)N1c2ccccc2C=Cc2ccccc21")
67.9
>>> numeric_readout("O=C(O)[C@@H]1CCCN1CCC(=O)N1c2ccccc2C=Cc2ccccc21")
11.9
>>> numeric_readout("O=C(O)[C@H](Cc1ccccc1)NCCC(=O)N1c2ccccc2C=Cc2ccccc21")
9.98
>>> numeric_readout("O=C(O)[C@H](CS)NCCC(=O)N1c2ccccc2C=Cc2ccccc21")
67.3
>>> numeric_readout("C[C@@H](O)[C@H](NCCC(=O)N1c2ccccc2C=Cc2ccccc21)C(=O)O")
53.5
>>> numeric_readout("O=C(CCCl)N1c2ccccc2C=Cc2ccccc21")
5.34

###

Assay: Antioxidant activity assessed as inhibition of linoleic acid oxidation at 25 uM up to 180 min by beta-carotene bleaching assay
Type: functional
Below, each entry is listed with its recorded inhibition.
quantity-kind: inhibition (%)

>>> numeric_readout("O=C(O)[C@H](Cc1c[nH]cn1)NCCC(=O)N1c2ccccc2C=Cc2ccccc21")
86.8
>>> numeric_readout("O=C1O[C@H]([C@@H](O)CO)C(O)=C1O")
90.4
>>> numeric_readout("O=C(O)[C@@H]1CCCN1CCC(=O)N1c2ccccc2C=Cc2ccccc21")
6.15

###

Assay: Antioxidant activity assessed as inhibition of CuSO4-induced human LDL oxidation at 25 uM at 6 hr by thibarbuteric acid assay
Type: functional
quantity-kind: inhibition

>>> result("O=C1O[C@H]([C@@H](O)CO)C(O)=C1O")
"92.2%"
>>> result("O=C(CCCl)N1c2ccccc2C=Cc2ccccc21")
"12.4%"
>>> result("O=C(O)[C@H](Cc1c[nH]c2ccccc12)NCCC(=O)N1c2ccccc2C=Cc2ccccc21")
"75.2%"
>>> result("O=C(O)[C@H](Cc1ccc(O)cc1)NCCC(=O)N1c2ccccc2C=Cc2ccccc21")
"83.5%"
>>> result("O=C(O)[C@@H]1C(O)CCN1CCC(=O)N1c2ccccc2C=Cc2ccccc21 (stereo not given in full)")
"77.1%"
>>> result("C[C@H](NCCC(=O)N1c2ccccc2C=Cc2ccccc21)C(=O)O")
"12.1%"
>>> result("O=C(O)CNCCC(=O)N1c2ccccc2C=Cc2ccccc21")
"10.3%"
>>> result("O=C(O)[C@@H]1CCCN1CCC(=O)N1c2ccccc2C=Cc2ccccc21")
"17.4%"
>>> result("O=C(O)[C@H](Cc1c[nH]cn1)NCCC(=O)N1c2ccccc2C=Cc2ccccc21")
"72.7%"
>>> result("CSCC[C@H](NCCC(=O)N1c2ccccc2C=Cc2ccccc21)C(=O)O")
"61.6%"

###

Test: Antioxidant activity assessed as inhibition of CuSO4-induced human LDL oxidation at 10 uM at 4 hr by thibarbuteric acid assay
Format: functional
Everything with inhibition lower than 70% is false; everything else, including exactly 70%, is true.

>>> group("O=C(O)[C@@H]1CCCN1CCC(=O)N1c2ccccc2C=Cc2ccccc21")
"false"
>>> group("O=C1O[C@H]([C@@H](O)CO)C(O)=C1O")
"true"
>>> group("C[C@@H](O)[C@H](NCCC(=O)N1c2ccccc2C=Cc2ccccc21)C(=O)O")
"false"
>>> group("C[C@H](NCCC(=O)N1c2ccccc2C=Cc2ccccc21)C(=O)O")
"false"
>>> group("O=C(O)[C@H](Cc1ccc(O)cc1)NCCC(=O)N1c2ccccc2C=Cc2ccccc21")
"true"
>>> group("O=C(O)[C@H](Cc1c[nH]cn1)NCCC(=O)N1c2ccccc2C=Cc2ccccc21")
"false"
>>> group("CSCC[C@H](NCCC(=O)N1c2ccccc2C=Cc2ccccc21)C(=O)O")
"false"

###

Experiment: Antioxidant activity assessed as inhibition of linoleic acid oxidation at 25 uM up to 180 min by beta-carotene bleaching assay
Assay type: functional
Everything with inhibition lower than 20% is no (0); everything else, including exactly 20%, is yes (1).

>>> group("C[C@H](NCCC(=O)N1c2ccccc2C=Cc2ccccc21)C(=O)O")
"no (0)"
>>> group("O=C(O)[C@H](CS)NCCC(=O)N1c2ccccc2C=Cc2ccccc21")
"yes (1)"
>>> group("O=C(O)[C@H](Cc1c[nH]c2ccccc12)NCCC(=O)N1c2ccccc2C=Cc2ccccc21")
"yes (1)"
>>> group("O=C(CCCl)N1c2ccccc2C=Cc2ccccc21")
"no (0)"
>>> group("O=C(O)CNCCC(=O)N1c2ccccc2C=Cc2ccccc21")
"no (0)"
>>> group("O=C(O)[C@@H]1C(O)CCN1CCC(=O)N1c2ccccc2C=Cc2ccccc21 (stereo not given in full)")
"yes (1)"
>>> group("CSCC[C@H](NCCC(=O)N1c2ccccc2C=Cc2ccccc21)C(=O)O")
"yes (1)"
>>> group("C[C@@H](O)[C@H](NCCC(=O)N1c2ccccc2C=Cc2ccccc21)C(=O)O")
"yes (1)"
>>> group("O=C(O)[C@H](Cc1ccc(O)cc1)NCCC(=O)N1c2ccccc2C=Cc2ccccc21")
"yes (1)"
>>> group("O=C(O)[C@H](Cc1ccccc1)NCCC(=O)N1c2ccccc2C=Cc2ccccc21")
"no (0)"

###

Below, each entry is listed with its recorded inhibition.
Assay: Antioxidant activity assessed as inhibition of CuSO4-induced human LDL oxidation at 10 uM at 2 hr by thibarbuteric acid assay
Format: functional
quantity-kind: inhibition (%)

>>> numeric_readout("C[C@H](NCCC(=O)N1c2ccccc2C=Cc2ccccc21)C(=O)O")
8.92
>>> numeric_readout("O=C(O)CNCCC(=O)N1c2ccccc2C=Cc2ccccc21")
6.71
>>> numeric_readout("O=C1O[C@H]([C@@H](O)CO)C(O)=C1O")
74.3

###

Assay: Antioxidant activity assessed as inhibition of CuSO4-induced human LDL oxidation at 10 uM at 4 hr by thibarbuteric acid assay
Format: functional
quantity-kind: inhibition (%)

>>> numeric_readout("O=C(CCCl)N1c2ccccc2C=Cc2ccccc21")
6.87
>>> numeric_readout("O=C(O)[C@@H]1C(O)CCN1CCC(=O)N1c2ccccc2C=Cc2ccccc21 (stereo not given in full)")
73.5
>>> numeric_readout("O=C(O)[C@H](Cc1c[nH]c2ccccc12)NCCC(=O)N1c2ccccc2C=Cc2ccccc21")
70.8
>>> numeric_readout("O=C(O)[C@H](Cc1ccccc1)NCCC(=O)N1c2ccccc2C=Cc2ccccc21")
11.2
>>> numeric_readout("O=C(O)CNCCC(=O)N1c2ccccc2C=Cc2ccccc21")
7.95
